The measurements presented in this section are drawn from PubChem BioAssay AID1919006.

system: 885512-296-R-J2-PDC complex spheroid growth, % test/control; assay: Anticancer human tumor 885512-296-R-J2-PDC patient-derived breast carcinoma cell line growth inhibition [AhR]; conditions: curve of first compound; second compound 3.16 µM
parameter: pIC50
Remember the convention: pIC50 equals -log10 of concentration in molar.

Some entries whose results are on file:
• CC[C@@]1(O)C(=O)OCc2c1cc1n(c2=O)Cc2cc3c(CN(C)C)c(O)ccc3nc2-1 + Cc1cncc(-c2nc(NCCc3c[nH]c4ccccc34)c3ncn(C(C)C)c3n2)c1 = 8.67
• COc1cc(Nc2ncc3c(n2)-c2ccc(Cl)cc2C(c2c(F)cccc2OC)=NC3)ccc1C(=O)O + CC(CO)NC(=O)c1cc(-c2ccc(Cl)cc2)nn(-c2cnn(C)c2)c1=O = 5.87
• Nc1ncn(C2CC(O)C(CO)O2)c(=O)n1 (configuration not stated) + Cc1cncc(-c2nc(NCCc3c[nH]c4ccccc34)c3ncn(C(C)C)c3n2)c1 = 6.45
• CC[C@@]1(O)C(=O)OCc2c1cc1n(c2=O)Cc2cc3c(CN(C)C)c(O)ccc3nc2-1 + CC(CO)NC(=O)c1cc(-c2ccc(Cl)cc2)nn(-c2cnn(C)c2)c1=O = 8.11
• CC[C@@]1(O)C(=O)OCc2c1cc1n(c2=O)Cc2cc3c(CN(C)C)c(O)ccc3nc2-1 + Cc1ccccc1N=Nc1ccc(NC(=O)c2ccnn2C)c(C)c1 = 8.34

Noted pIC50 for COc1cc(C2c3cc4c(cc3C(OC3OC5COC(C)OC5C(O)C3O)C3COC(=O)C23)OCO4)cc(OC)c1O (configuration not stated) + CC(CO)NC(=O)c1cc(-c2ccc(Cl)cc2)nn(-c2cnn(C)c2)c1=O , tested on 885512-296-R-J2-PDC complex spheroid growth, % test/control: 6.31

Noted pIC50 for NS(=O)(=O)OCC1CC(n2ccc3c(NC4CCc5ccccc54)ncnc32)CC1O (configuration not stated) + Cc1ccccc1N=Nc1ccc(NC(=O)c2ccnn2C)c(C)c1 , tested on 885512-296-R-J2-PDC complex spheroid growth, % test/control: 7.09

---

test system: 885512-296-R-J2-PDC complex spheroid growth, % test/control; assay: Anticancer human tumor 885512-296-R-J2-PDC cell line growth inhibition [AhR]; details: curve of first compound; second compound 3.16 µM;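 also: spheroids exposed to compounds for seven days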
Quick list: IC50 per entry.

- CC1COCCN1c1cc(-c2ccnn2C)c2ccnc(-c3ccn[nH]3)c2n1 (stereo not given) + Cc1ccccc1N=Nc1ccc(NC(=O)c2ccnn2C)c(C)c1: 41 nM

Noted IC50 for CC1(C)CCC(CN2CCN(c3ccc(C(=O)NS(=O)(=O)c4ccc(NCC5CCOCC5)c([N+](=O)[O-])c4)c(Oc4cnc5[nH]ccc5c4)c3)CC2)=C(c2ccc(Cl)cc2)C1 + Cc1ccccc1N=Nc1ccc(NC(=O)c2ccnn2C)c(C)c1 , tested on 885512-296-R-J2-PDC complex spheroid growth, % test/control: 3050 nM

Noted IC50 for CC1(C)CCC(CN2CCN(c3ccc(C(=O)NS(=O)(=O)c4ccc(NCC5CCOCC5)c([N+](=O)[O-])c4)c(Oc4cnc5[nH]ccc5c4)c3)CC2)=C(c2ccc(Cl)cc2)C1 + Cc1cncc(-c2nc(NCCc3c[nH]c4ccccc34)c3ncn(C(C)C)c3n2)c1 , tested on 885512-296-R-J2-PDC complex spheroid growth, % test/control: < 31.6 nM

Noted IC50 for CC1COCCN1c1cc(C2(S(C)(=N)=O)CC2)nc(-c2ccnc3[nH]ccc23)n1 (stereo not given) + Cc1cncc(-c2nc(NCCc3c[nH]c4ccccc34)c3ncn(C(C)C)c3n2)c1 , tested on 885512-296-R-J2-PDC complex spheroid growth, % test/control: 282 nM

Noted IC50 for O=C(c1cc(Cc2n[nH]c(=O)c3ccccc23)ccc1F)N1CCN(C(=O)C2CC2)CC1 + Cc1cncc(-c2nc(NCCc3c[nH]c4ccccc34)c3ncn(C(C)C)c3n2)c1 , tested on 885512-296-R-J2-PDC complex spheroid growth, % test/control: 3070 nM

---

tested on: 885512-296-R-J2-PDC complex spheroid growth, % test/control; experiment: Anticancer human tumor 885512-296-R-J2-PDC cell line growth inhibition [AhR]; conditions: second compound 0.316 µM; first compound 0.316 µM; stronger effect = lower value;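 also: spheroids exposed to compounds for seven days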
parameter: viability, T/C (%)
Kindly answer with a numeric value in %, unit omitted.

Some entries whose results are on file:
* COc1cc(Nc2ncc3c(n2)-c2ccc(Cl)cc2C(c2c(F)cccc2OC)=NC3)ccc1C(=O)O + Cc1ccccc1N=Nc1ccc(NC(=O)c2ccnn2C)c(C)c1 | 57.8
* CC1COCCN1c1cc(C2(S(C)(=N)=O)CC2)nc(-c2ccnc3[nH]ccc23)n1 (stereo not drawn) + Cc1cncc(-c2nc(NCCc3c[nH]c4ccccc34)c3ncn(C(C)C)c3n2)c1 | 97.3

With those in mind, consider the next compound.
Noted viability, T/C for Nc1ccccc1NC(=O)c1ccc(CNC(=O)OCc2cccnc2)cc1 + CC(CO)NC(=O)c1cc(-c2ccc(Cl)cc2)nn(-c2cnn(C)c2)c1=O , tested on 885512-296-R-J2-PDC complex spheroid growth, % test/control: 62.2

---

tested on: 885512-296-R-J2-PDC complex spheroid growth, % test/control; assay: Anticancer human tumor 885512-296-R-J2-PDC cell line growth inhibition [AhR]; settings: second compound 10 µM; first compound 0.1 µM; active = viability on the fitted dose curve at most 10% of control; inactive = the rest;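 also: spheroids exposed to compounds for seven days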
# valid calls are active, inactive; nothing else

Solved cases (2 shown):
• Cn1ncnc1C1c2n[nH]c(=O)c3cc(F)cc(c23)NC1c1ccc(F)cc1 (configuration not stated) + CC(CO)NC(=O)c1cc(-c2ccc(Cl)cc2)nn(-c2cnn(C)c2)c1=O = inactive
• CC(C)c1c(-c2ccccc2)nc2c(C#N)c[nH]n2c1=O + Cc1cncc(-c2nc(NCCc3c[nH]c4ccccc34)c3ncn(C(C)C)c3n2)c1 = inactive

## Input In this assay, the call recorded for CC1COCCN1c1cc(-c2ccnn2C)c2ccnc(-c3ccn[nH]3)c2n1 (configuration not stated) + CC(CO)NC(=O)c1cc(-c2ccc(Cl)cc2)nn(-c2cnn(C)c2)c1=O was what?
## Output active

## Input In this assay, the call recorded for NS(=O)(=O)OCC1CC(n2ccc3c(NC4CCc5ccccc54)ncnc32)CC1O (configuration not stated) + Cc1cncc(-c2nc(NCCc3c[nH]c4ccccc34)c3ncn(C(C)C)c3n2)c1 was what?
## Output active

## Input In this assay, the call recorded for CC[C@@]1(O)C(=O)OCc2c1cc1n(c2=O)Cc2cc3c(CN(C)C)c(O)ccc3nc2-1 + CC(CO)NC(=O)c1cc(-c2ccc(Cl)cc2)nn(-c2cnn(C)c2)c1=O was what?
## Output active

## Input In this assay, the call recorded for Nc1ccccc1NC(=O)c1ccc(CNC(=O)OCc2cccnc2)cc1 + Cc1cncc(-c2nc(NCCc3c[nH]c4ccccc34)c3ncn(C(C)C)c3n2)c1 was what?
## Output inactive

## Input In this assay, the call recorded for COc1ccc([C@@H](O)c2cc(-c3ncnc4cc(N5CCOCC5)ccc34)c(F)cc2Cl)nn1 + CC(CO)NC(=O)c1cc(-c2ccc(Cl)cc2)nn(-c2cnn(C)c2)c1=O was what?
## Output inactive

---

system: 885512-296-R-J2-PDC complex spheroid growth, % test/control; assay: Anticancer human tumor 885512-296-R-J2-PDC cell line growth inhibition [AhR]; settings: second compound 10 µM; first compound 0.949 µM; active = viability on the fitted dose curve at most 10% of control; inactive = the rest;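 also: spheroids exposed to compounds for seven days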
# valid calls are active, inactive; nothing else

## Input In this assay, the call recorded for O=C(C=Cn1cnc(-c2cc(C(F)(F)F)cc(C(F)(F)F)c2)n1)NNc1cnccn1 + Cc1ccccc1N=Nc1ccc(NC(=O)c2ccnn2C)c(C)c1 was what?
## Output active

## Input In this assay, the call recorded for CCN(c1cc(-c2ccc(CN3CCOCC3)cc2)cc(C(=O)NCc2c(C)cc(C)[nH]c2=O)c1C)C1CCOCC1 + CC(CO)NC(=O)c1cc(-c2ccc(Cl)cc2)nn(-c2cnn(C)c2)c1=O was what?
## Output inactive

## Input In this assay, the call recorded for CCN(c1cc(-c2ccc(CN3CCOCC3)cc2)cc(C(=O)NCc2c(C)cc(C)[nH]c2=O)c1C)C1CCOCC1 + Cc1cncc(-c2nc(NCCc3c[nH]c4ccccc34)c3ncn(C(C)C)c3n2)c1 was what?
## Output inactive

## Input In this assay, the call recorded for O=C(C=Cn1cnc(-c2cc(C(F)(F)F)cc(C(F)(F)F)c2)n1)NNc1cnccn1 + Cc1cncc(-c2nc(NCCc3c[nH]c4ccccc34)c3ncn(C(C)C)c3n2)c1 was what?
## Output active

## Input In this assay, the call recorded for CCN(c1cc(-c2ccc(CN3CCOCC3)cc2)cc(C(=O)NCc2c(C)cc(C)[nH]c2=O)c1C)C1CCOCC1 + Cc1ccccc1N=Nc1ccc(NC(=O)c2ccnn2C)c(C)c1 was what?
## Output inactive

## Input In this assay, the call recorded for O=C(C=Cn1cnc(-c2cc(C(F)(F)F)cc(C(F)(F)F)c2)n1)NNc1cnccn1 + CC(CO)NC(=O)c1cc(-c2ccc(Cl)cc2)nn(-c2cnn(C)c2)c1=O was what?
## Output active
